# Ki per entry
- Tested target: UniProt:P42226
- Sequence (P42226 whole entry): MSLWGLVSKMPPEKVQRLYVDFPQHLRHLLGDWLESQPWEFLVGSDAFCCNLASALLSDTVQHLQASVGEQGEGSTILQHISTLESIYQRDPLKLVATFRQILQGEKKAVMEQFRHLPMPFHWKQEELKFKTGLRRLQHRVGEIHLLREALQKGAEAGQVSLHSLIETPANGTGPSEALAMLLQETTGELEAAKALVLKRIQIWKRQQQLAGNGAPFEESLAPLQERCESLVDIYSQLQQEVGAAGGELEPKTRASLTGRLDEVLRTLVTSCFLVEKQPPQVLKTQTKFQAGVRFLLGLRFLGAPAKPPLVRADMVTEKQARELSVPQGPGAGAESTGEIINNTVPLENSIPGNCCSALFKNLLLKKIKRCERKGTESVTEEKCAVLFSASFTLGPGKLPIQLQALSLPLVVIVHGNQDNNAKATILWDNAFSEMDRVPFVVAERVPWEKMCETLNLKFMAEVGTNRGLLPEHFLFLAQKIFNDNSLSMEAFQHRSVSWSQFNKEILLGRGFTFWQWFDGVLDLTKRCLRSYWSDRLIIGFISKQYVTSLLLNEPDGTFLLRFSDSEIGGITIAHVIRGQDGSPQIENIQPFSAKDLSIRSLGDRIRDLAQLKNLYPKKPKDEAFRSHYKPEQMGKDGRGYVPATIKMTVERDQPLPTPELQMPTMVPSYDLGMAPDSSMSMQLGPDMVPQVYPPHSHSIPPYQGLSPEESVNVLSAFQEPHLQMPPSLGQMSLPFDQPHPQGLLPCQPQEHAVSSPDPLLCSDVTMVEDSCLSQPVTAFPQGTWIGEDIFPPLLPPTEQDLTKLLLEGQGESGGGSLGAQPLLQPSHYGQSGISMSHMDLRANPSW
- Assay method text: Fluorescence polarization (FP) binding assay, STAT6
- Assay conditions: FP competition, 5 nM fluorescein-labeled tracer, 200 nM protein, PBS pH7.4; read-out: Binding STAT6

Completed entries (count: 6):
Form field: reported Ki of CC(C)(C)[C@H](NC(=O)c1cc2cc(C(F)(F)P(=O)(O)O)ccc2s1)C(=O)N1Cc2ccccc2CC1C(=O)N1CCO[C@H](c2ccccc2)C1 (stereo partly shown)
0.1 to 1 µM

Okay, and "CC(=O)N1CC[C@H]2CC[C@@H](C(=O)N3CCC4(CCCC4)C3)N2C(=O)[C@@H](NC(=O)c2cc3cc(C(F)(F)P(=O)(O)O)ccc3s2)C1" ?
> 10 µM

Now consider CC(=O)N1CCC(C(NC(=O)c2cc3cc(C(F)(F)P(=O)(O)O)ccc3[nH]2)C(=O)N2CCC[C@H]2C(=O)N2CCc3ccccc3C2)CC1 (stereo partly shown) .
> 10 µM

Entry to check: "O=C(N[C@@H](CC1=CCN(Cc2ccccc2)CC1)C(=O)N1CCC[C@H]1C(=O)N1CCc2ccccc2C1)c1cc2cc(C(F)(F)P(=O)(O)O)ccc2[nH]1"
> 10 µM

Okay, and CC1(c2ccc(F)cc2)CN(C(=O)[C@@H]2Cc3ccccc3CN2C(=O)[C@@H](NC(=O)c2cc3cc(C(F)(F)P(=O)(O)O)ccc3s2)C(C)(C)C)CCO1 (stereo partly shown) ?
1 to 10 µM

"CCC(CC)[C@H](NC(=O)c1cc2cc(C(F)(F)P(=O)(O)O)ccc2s1)C(=O)N1CCC[C@H]1C(=O)N1CCO[C@@H](c2ccccc2)C1" ?
1 to 10 µM

Okay, next one:
I'd like to know its Ki. The molecule in question is "CN1CCC(C(=O)N2CC[C@H]3CC[C@@H](C(=O)N4CCc5ccccc5C4)N3C(=O)[C@@H](NC(=O)c3cc4cc(C(F)(F)P(=O)(O)O)ccc4[nH]3)C2)CC1"
> 10 µM

Recorded values, source patent US20230295200A1.
